# assay comment: Plasma pharmacokinetics after single IV bolus or oral dose
# Type: in vivo, mice
# measurement parameters: mouse, plasma; IV, 2 mg/kg, male Balb/c mice; read-out: VSS
# Experimental: Following a single Intravenous (IV) Bolus or Oral (PO) Dose to Male Balb/c Mice, approximately 0.1 mL whole blood was collected via the cheek vein (submandibular) according to an alternate bleeding schedule (n=3/time point/route) at 0.083 (IV), 0.25, 0.5, 1, 2, 4, 6, 8, and 24 hours post-dose into tubes containing K2EDTA anticoagulant and plasma was harvested by centrifugation. Prior to in vivo efficacy studies, pharmacokinetic studies were performed with Compound 12.
property measured: Vd (L/kg)
Express it in L/kg; write the number only.

Entry under review: CN1CCN(c2cc(C(=O)Nc3cc4cc(-c5cnn(C)c5)ccc4cn3)ccn2)CC1 . Reported Vd?
3.29
